Reference source: PubChem BioAssay (NCATS)

- Assay Name: Cell Viability - LYMP2-003 (AID 965);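 note: cells exposed to compounds for 24 h before reading; nearly all actives have a fitted effect of over 50% in size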
- Test Context: LYMP2-003 lymphoblastoid cell viability; series mostly up to 92.2 µM
Records with an inconclusive call do not appear. Activity calls are given as the source filed them. Calls come from the whole dose curve; as a rule, active = well fitted cell-killing curve with a large enough effect; inconclusive = small, poorly fitted or top-dose-only effect, or effect the other way; inactive = flat fitted curve, though single readings scatter.
Metric: Potency

Here is how some molecules turned out for Potency.
CN1[C@H]2CC(OC(=O)[C@H](CO)c3ccccc3)C[C@H]1[C@H]1O[C@H]12 (some centres undefined)	inactive
O=Cc1ccc(Cl)c(Cl)c1	inactive
Nc1ccc2cc3ccccc3cc2c1	inactive
O=C1OC2(c3cc(Br)c(O)c(Br)c3Oc3c2cc(Br)c(O)c3Br)c2c(Cl)c(Cl)c(Cl)c(Cl)c21	inactive
O=C(/C=C/c1ccc(O)c(O)c1)OC1C[C@](O)(C(=O)O)C[C@@H](O)[C@H]1O (some centres undefined)	inactive

**Query** Consider the molecule Cc1cccc(O)c1C . State its measured Potency.
**Result** inactive
